Target: T1, IRF4 DBD C99S (Homo sapiens, UniProt Q15306 20-132, C99S)
T1 sequence: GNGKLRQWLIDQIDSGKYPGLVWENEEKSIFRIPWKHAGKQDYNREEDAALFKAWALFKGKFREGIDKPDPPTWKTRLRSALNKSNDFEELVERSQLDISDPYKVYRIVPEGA
Experiment: FP; FP: PBS + 0.05% Tween20, 5 nM DNA, 1 h, room temperature; SPR: Biacore S200, SA chip, protein 0.1-4500 nM, running buffer not given in material; errors are SD
Details: protein: recombinant; label: 3' fluorescein (FAM); hairpin, TTTT loop
ATTRIBUTE_MEASURED: Kd (nM)
Numeric answer only, unit nM assumed.

Entry CTTGGTTTCACTTCCTGCGTTTTCGCAGGAAGTGAAACCAAG (structured_DNA) [IRE hairpin (FAM)] : reported Kd = ?
243
